Exercise: for every item that follows, state its recorded RP-HPLC Retention (% MeCN).
Experiment: Average hydrophobicity by analytical reverse-phase HPLC retention
Format: physicochemical
Conditions: Supplement table 4 (chemical and physical data for peptoid library); % MeCN at elution in RP-HPLC
Non-standard residues stand in square brackets, D forms with d. Residues, ends and D or L forms follow the SMILES beside them. Gly(N-2-aminoethyl) = NCCNCC(=O)O; Nspe = C[C@H](NCC(=O)O)c1ccccc1; Nphe = O=C(O)CNCc1ccccc1; Nlys = NCCCCNCC(=O)O
Express it in % MeCN; write the number only.

Problem: Could you share which RP-HPLC Retention (% MeCN) value was measured for C[C@@H](c1ccccc1)N(CC(N)=O)C(=O)CN(C(=O)CN(CCCCN)C(=O)CN(C(=O)CN(C(=O)CNCCCCN)[C@@H](C)c1ccccc1)[C@@H](C)c1ccccc1)[C@@H](C)c1ccccc1 [Peptoid 6] (H-[Nlys][Nspe][Nspe][Nlys][Nspe][Nspe]-NH2) ?
Result: 33

Problem: What do you have for NCCCCNCC(=O)N(CC(=O)N(CC(=O)N(CCCCN)CC(=O)N(CC(=O)N(CC(N)=O)Cc1ccccc1)Cc1ccccc1)Cc1ccccc1)Cc1ccccc1 [Peptoid 3] (H-[Nlys][Nphe][Nphe][Nlys][Nphe][Nphe]-NH2) ?
Result: 31

Problem: Follow-up item: C[C@@H](c1ccccc1)N(CC(N)=O)C(=O)CN(C(=O)CN(CCCCN)C(=O)CN(C(=O)CN(C(=O)CN(CCCCN)C(=O)CN(C(=O)CN(C(=O)CNCCCCN)[C@@H](C)c1ccccc1)[C@@H](C)c1ccccc1)[C@@H](C)c1ccccc1)[C@@H](C)c1ccccc1)[C@@H](C)c1ccccc1 [Peptoid 5] (H-[Nlys][Nspe][Nspe][Nlys][Nspe][Nspe][Nlys][Nspe][Nspe]-NH2)
Result: 37

Problem: Now try C[C@@H](c1ccccc1)N(CC(N)=O)C(=O)CN(C(=O)CN(CCCCN)C(=O)CN(C(=O)CN(C(=O)CN(CCCCN)C(=O)CN(C(=O)CN(C(=O)CN(CCCCN)C(=O)CN(C(=O)CN(C(=O)CNCCCCN)[C@@H](C)c1ccccc1)[C@@H](C)c1ccccc1)[C@@H](C)c1ccccc1)[C@@H](C)c1ccccc1)[C@@H](C)c1ccccc1)[C@@H](C)c1ccccc1)[C@@H](C)c1ccccc1 [Peptoid 4] (H-[Nlys][Nspe][Nspe][Nlys][Nspe][Nspe][Nlys][Nspe][Nspe][Nlys][Nspe][Nspe]-NH2) .
Result: 42

Problem: Queued: NCCNCC(=O)N(CC(=O)N(CC(=O)N(CCN)CC(=O)N(CC(=O)N(CC(N)=O)Cc1ccccc1)Cc1ccccc1)Cc1ccccc1)Cc1ccccc1 [Peptoid 9] (H-[Gly(N-2-aminoethyl)][Nphe][Nphe][Gly(N-2-aminoethyl)][Nphe][Nphe]-NH2)
Result: 30

Problem: Query NCCNCC(=O)N(CC(=O)N(CC(=O)N(CCN)CC(=O)N(CC(=O)N(CC(=O)N(CCN)CC(=O)N(CC(=O)N(CC(N)=O)Cc1ccccc1)Cc1ccccc1)Cc1ccccc1)Cc1ccccc1)Cc1ccccc1)Cc1ccccc1 [Peptoid 8] (H-[Gly(N-2-aminoethyl)][Nphe][Nphe][Gly(N-2-aminoethyl)][Nphe][Nphe][Gly(N-2-aminoethyl)][Nphe][Nphe]-NH2) next
Result: 34
